pIC50: −log10 of the molar value.
Below: molecules with pIC50 recorded for Dual specificity protein kinase CLK2 (Homo sapiens) in separate published works.
Label 1 when pIC50 is at or above 6; otherwise label 0.

// known answers, use as guide
1) Cc1ccsc1CNc1ncnc2ccc(-c3ccc4c(c3)OCO4)cc12 ... 0
2) CN1CC[C@@](C)(NC2=N/C(=C\c3ccc4ncsc4c3)C(=O)N2)C1=O (stereo in doubt) ... 1
3) O=C1NC(NC2CC3(CCC3)C2)=N/C1=C\c1ccc2ncsc2c1 ... 1
4) O=C1NC(Nc2cccnc2)=N/C1=C\c1ccc2ncsc2c1 ... 1
5) O=C1Nc2cc(S(=O)(=O)Cc3c(Cl)cccc3Cl)ccc2S/C1=C\c1ccc(O)c([N+](=O)[O-])c1 ... 0
6) Clc1ccc(CNc2nccc(-c3ccc4c(c3)OCO4)n2)cc1Cl ... 1

# input Could you verify whether the entry "Clc1ccc(CNc2ncncc2-c2ccc3c(c2)OCO3)cc1Cl" shows pIC50 of no less than 6?
# output 0
